Values from patent US20130244938A1

Each entry below carries its reported pIC50.
- target-or-system: T1, LGR7 (leucine-rich repeat-containing GPCR 7) (human, UniProt Q9HBX9 1-757)
- T1 construct: whole, on cells; The methods say only 'recombinant LGR7' stably expressed in HEK293T cells; also called RFXR1; recombinant LGR7
- T1 sequence (looked up): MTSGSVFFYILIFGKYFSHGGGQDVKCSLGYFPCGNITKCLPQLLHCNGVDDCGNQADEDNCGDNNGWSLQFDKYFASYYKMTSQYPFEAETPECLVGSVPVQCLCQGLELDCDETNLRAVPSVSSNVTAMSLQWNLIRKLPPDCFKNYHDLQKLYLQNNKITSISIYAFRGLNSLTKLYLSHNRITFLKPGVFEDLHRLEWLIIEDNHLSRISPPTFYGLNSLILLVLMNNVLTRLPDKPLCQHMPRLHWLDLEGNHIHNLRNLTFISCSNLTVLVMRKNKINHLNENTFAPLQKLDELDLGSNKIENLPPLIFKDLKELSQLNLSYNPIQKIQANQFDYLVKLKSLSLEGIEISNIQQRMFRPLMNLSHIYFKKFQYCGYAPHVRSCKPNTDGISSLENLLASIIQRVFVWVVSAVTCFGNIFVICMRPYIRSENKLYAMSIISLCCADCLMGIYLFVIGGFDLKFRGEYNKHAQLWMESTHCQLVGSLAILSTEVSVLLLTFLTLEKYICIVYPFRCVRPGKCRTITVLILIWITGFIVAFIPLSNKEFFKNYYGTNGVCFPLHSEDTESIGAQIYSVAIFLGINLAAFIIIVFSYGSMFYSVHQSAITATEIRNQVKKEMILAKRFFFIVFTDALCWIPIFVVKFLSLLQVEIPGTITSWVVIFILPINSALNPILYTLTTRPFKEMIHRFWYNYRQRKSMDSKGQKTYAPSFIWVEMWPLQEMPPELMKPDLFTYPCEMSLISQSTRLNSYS
- test-name: competition with 125I-RLN2 tracer on LGR7-expressing HEK293T cells
Where no end group is shown, it is not given here.
Write the number on its own, no unit after it.

Dear colleague, please send me the reported pIC50 for RLN2 R^A22A (ligand, not shown: small tags and cut ends, not fully specified; ends and bridges not checked; also: N-terminal Myc epitope tag, Construct with the 8-amino acid linker, processed to the mature two-chain form) chain 1: SWMEEVIKLCGRELVRAQIAICGMSTWSHHHHHH chain 2: QLYSALANKCCHVGCTKRSLAAFC when you can.
8.42
